- testName: gradient 5% acetonitrile 3 min, to 50% in 2 min, to 85% in 15 min, held 3 min, 100 µL/min
- conditionLabel: column: Zorbax Extend-C18 2.1 x 50 mm; eluents: water / acetonitrile, 0.1% formic acid
Consider the following compounds; for each one, report its RP-LC retention time.
Value expressed in s; do not type the unit.

[Q] Consider the compound CCN(C(=O)C1CCCN(c2ncnc3c2nc2n3CCCCC2)C1)c1cccc(Cl)c1 (centres undefined) and give its measured RP-LC retention time.
[A] 912

[Q] Consider the compound CCOc1ccc(-c2cc(=O)n(CCCC(=O)Nc3ccc4sc(C)nc4c3)cn2)cc1 and give its measured RP-LC retention time.
[A] 721

[Q] Consider the compound COc1cccc(NC(=O)N2CCN(Cc3nc4cc(Cl)ccc4o3)CC2)c1 and give its measured RP-LC retention time.
[A] 731

[Q] Consider the compound COc1ccc(NS(=O)(=O)c2ccc(N)cc2)nn1 and give its measured RP-LC retention time.
[A] 572

[Q] Consider the compound Cc1ccc(CNC(=O)c2nsc(C(=O)N3CCN(c4ccccn4)CC3)c2N)cc1 and give its measured RP-LC retention time.
[A] 681

[Q] Consider the compound CCN1c2ccc(C)cc2C(=O)NC12CCN(C(=O)c1cc(F)cc(F)c1)CC2 and give its measured RP-LC retention time.
[A] 858

[Q] Consider the compound Fc1cccc(-n2cc(-c3noc(-c4ccc5c(c4)OCO5)n3)nn2)c1 and give its measured RP-LC retention time.
[A] 1010

[Q] Consider the compound COc1ccc(C)cc1NC(=O)C1CC(=O)N(c2n[nH]c3ccccc23)C1 (centres undefined) and give its measured RP-LC retention time.
[A] 755

[Q] Consider the compound CC(Oc1ccccc1Cl)C(=O)Nc1ccnn1Cc1cccs1 (centres undefined) and give its measured RP-LC retention time.
[A] 913

[Q] Consider the compound CNc1oc(-c2ccco2)nc1S(=O)(=O)c1ccc(F)cc1 and give its measured RP-LC retention time.
[A] 809

[Q] Consider the compound CC1=C(c2ccc(C)cc2)S(=O)(=O)N=C1N1CCCN(C(=O)c2ccsc2)CC1 and give its measured RP-LC retention time.
[A] 821

[Q] Consider the compound Cc1nn2c(CNS(=O)(=O)c3cccc(Cl)c3)c(-c3ccccc3)nc2s1 and give its measured RP-LC retention time.
[A] 916

[Q] Consider the compound COc1ccc(NC(=O)NC(C)C(=O)N2CCc3ccccc32)c(OC)c1 (centres undefined) and give its measured RP-LC retention time.
[A] 859

[Q] Consider the compound CCOc1ccccc1NC(=O)N1CCN(c2cc(C)nc(N3CCOCC3)n2)CC1 and give its measured RP-LC retention time.
[A] 631

[Q] Consider the compound CSc1ccc(CNC(=O)C2CCCN(c3ncc(-c4ccc(F)cc4)cn3)C2)cc1 (centres undefined) and give its measured RP-LC retention time.
[A] 1090

[Q] Consider the compound CCCn1cc(C2=CCN(S(=O)(=O)c3ccc(OC)c(Cl)c3)CC2)c2cccnc21 and give its measured RP-LC retention time.
[A] 921

[Q] Consider the compound CC(C)CN(C[C@@H](O)[C@H](Cc1ccccc1)NC(=O)O[C@H]1CO[C@H]2OCC[C@H]21)S(=O)(=O)c1ccc(N)cc1 and give its measured RP-LC retention time.
[A] 830

[Q] Consider the compound Cc1[nH]c(C(=O)N2CCC(CC(=O)NCCCN3CCCC(C)C3)CC2)c(C)c1C (centres undefined) and give its measured RP-LC retention time.
[A] 610

[Q] Consider the compound O=C(NCCCN1CCCCCC1)c1ccc2c(c1)NC(=O)C1CCCCN21 (centres undefined) and give its measured RP-LC retention time.
[A] 609
